SUBJECT_OF_TEST: cGMP-specific 3',5'-cyclic phosphodiesterase (Homo sapiens, UniProt O76074)
PROTOCOL_DETAILS: Inhibition of PDE5 (unknown origin)
IC50 values by entry

COMPOUND	SUBJECT_OF_TEST	UNIT_LABEL	IC50
CCc1ccc(C2c3[nH]c4ccccc4c(=O)c3CN2c2ncc(-c3ccccn3)cn2)o1 (stereo unspecified)	cGMP-specific 3',5'-cyclic phosphodiesterase (Homo sapiens, UniProt O76074)	nM	0.53
CCN1C(=O)[C@@H]2Cc3c([nH]c4ccccc34)[C@@H](c3ccc(Br)s3)N2C1=O	cGMP-specific 3',5'-cyclic phosphodiesterase (Homo sapiens, UniProt O76074)	nM	160
CC(C)(C)Oc1ccc(Cc2[nH]c(-c3ccco3)c3c(=O)c4ccccc4oc23)cc1	cGMP-specific 3',5'-cyclic phosphodiesterase (Homo sapiens, UniProt O76074)	nM	240
c1ccc(CNc2ncnc3sc4c(c23)CCCCC4)cc1	cGMP-specific 3',5'-cyclic phosphodiesterase (Homo sapiens, UniProt O76074)	nM	190
CCCCCN1C(=O)[C@@H]2Cc3c([nH]c4ccccc34)[C@@H](c3ccc(Br)s3)N2C1=O	cGMP-specific 3',5'-cyclic phosphodiesterase (Homo sapiens, UniProt O76074)	nM	170
CCc1ccc(C2c3[nH]c4ccccc4c3CCN2c2ccc(-c3ccccn3)cn2)s1 (stereo unspecified)	cGMP-specific 3',5'-cyclic phosphodiesterase (Homo sapiens, UniProt O76074)	nM	86

---

Attribute: IC50
SUBJECT_OF_TEST: High affinity cGMP-specific 3',5'-cyclic phosphodiesterase 9A (Homo sapiens)
Sequence (O76083 whole entry): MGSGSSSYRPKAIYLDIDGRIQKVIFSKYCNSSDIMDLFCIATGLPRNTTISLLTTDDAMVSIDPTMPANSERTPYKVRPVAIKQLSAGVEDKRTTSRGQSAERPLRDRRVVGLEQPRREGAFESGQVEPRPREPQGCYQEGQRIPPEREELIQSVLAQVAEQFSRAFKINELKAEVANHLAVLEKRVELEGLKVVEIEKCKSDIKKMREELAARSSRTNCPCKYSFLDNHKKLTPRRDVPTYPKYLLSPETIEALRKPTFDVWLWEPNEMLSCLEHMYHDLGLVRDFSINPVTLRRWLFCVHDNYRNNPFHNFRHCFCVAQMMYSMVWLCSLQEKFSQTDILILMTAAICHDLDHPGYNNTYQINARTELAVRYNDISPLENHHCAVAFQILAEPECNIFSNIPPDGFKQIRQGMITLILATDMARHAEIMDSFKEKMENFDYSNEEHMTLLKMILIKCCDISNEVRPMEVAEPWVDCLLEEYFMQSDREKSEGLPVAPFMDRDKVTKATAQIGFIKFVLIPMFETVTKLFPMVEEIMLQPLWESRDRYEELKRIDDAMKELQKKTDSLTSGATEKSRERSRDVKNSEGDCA
PROTOCOL_DETAILS: Inhibition of full length recombinant human N-terminal GST-tagged PDE9A2 expressed in baculovirus infected sf9 cells using […] as substrate after 1 hr by fluorescence polarization assay

SMILES_RECORD	IC50
CCc1ccc([C@@H]2c3[nH]c4ccccc4c3C[C@@H]3C(=O)N(C)CC(=O)N23)s1	> 4 µM
CN1CC(=O)N2[C@H](c3ccc4c(c3)OCO4)c3[nH]c4ccccc4c3C[C@@H]2C1=O	> 10 µM
CCc1ccc([C@@H]2c3[nH]c4ccccc4c3C[C@H]3C(=O)N(CC)C(=O)N23)o1	> 3 µM

---

SUBJECT_OF_TEST: UniProt:O76074
PROTOCOL_DETAILS: Inhibition of full length recombinant human N-terminal GST-tagged PDE5A1 expressed in baculovirus infected sf9 cells using FAM-cyclic-3',5-GMP as substrate after 1 hr by fluorescence polarization assay
pIC50: −log10 of the molar value.
Listed compounds paired with reported pIC50
ATTRIBUTE_MEASURED: pIC50

SMILES_RECORD	NUMERIC_VALUE
Cc1ccc([C@@H]2c3[nH]c4ccccc4c3C[C@@H]3C(=O)N(C)CC(=O)N23)o1	7.43
Cc1ccc([C@@H]2c3[nH]c4ccccc4c3C[C@@H]3C(=O)N(C)CC(=O)N23)s1	8.06
CCc1ccc([C@@H]2c3[nH]c4ccccc4c3C[C@H]3C(=O)N(CC)C(=O)N23)o1	8.53

---

SUBJECT_OF_TEST: Cone cGMP-specific 3',5'-cyclic phosphodiesterase subunit alpha' (Homo sapiens, UniProt P51160)
Sequence (P51160 whole entry): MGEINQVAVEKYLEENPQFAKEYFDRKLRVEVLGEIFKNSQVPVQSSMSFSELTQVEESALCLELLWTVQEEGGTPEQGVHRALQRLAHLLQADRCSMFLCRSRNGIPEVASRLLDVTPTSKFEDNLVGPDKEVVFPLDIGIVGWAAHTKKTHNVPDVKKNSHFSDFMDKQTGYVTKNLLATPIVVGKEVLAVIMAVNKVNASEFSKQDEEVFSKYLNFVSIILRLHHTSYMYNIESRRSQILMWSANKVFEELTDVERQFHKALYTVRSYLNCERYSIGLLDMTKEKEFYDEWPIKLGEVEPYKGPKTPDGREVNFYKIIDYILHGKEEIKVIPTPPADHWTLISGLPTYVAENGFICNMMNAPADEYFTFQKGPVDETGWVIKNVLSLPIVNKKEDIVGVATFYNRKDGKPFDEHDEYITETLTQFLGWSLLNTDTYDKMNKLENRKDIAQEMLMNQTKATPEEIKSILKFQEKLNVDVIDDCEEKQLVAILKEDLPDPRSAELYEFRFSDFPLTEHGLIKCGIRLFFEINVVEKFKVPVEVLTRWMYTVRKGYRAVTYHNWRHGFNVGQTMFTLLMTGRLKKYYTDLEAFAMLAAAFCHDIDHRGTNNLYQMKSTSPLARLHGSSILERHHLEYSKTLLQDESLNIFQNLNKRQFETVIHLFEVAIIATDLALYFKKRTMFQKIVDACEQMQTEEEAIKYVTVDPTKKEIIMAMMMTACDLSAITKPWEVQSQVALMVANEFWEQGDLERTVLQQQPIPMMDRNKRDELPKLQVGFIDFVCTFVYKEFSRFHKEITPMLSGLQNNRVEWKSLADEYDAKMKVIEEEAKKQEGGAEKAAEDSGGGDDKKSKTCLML
PROTOCOL_DETAILS: Inhibition of full length recombinant human N-terminal GST-tagged PDE6C expressed in baculovirus infected sf9 cells using […] as substrate after 1 hr by fluorescence polarization assay
pIC50: −log10 of the molar value.
Recorded measurements of pIC50, one per entry

SMILES_RECORD	pIC50
CCc1ccc([C@@H]2c3[nH]c4ccccc4c3C[C@@H]3C(=O)N(C)CC(=O)N23)o1	< 6.00
CCc1ccc([C@H]2c3[nH]c4ccccc4c3C[C@H]3C(=O)N(C)CC(=O)N23)s1	< 6.00
Cc1ccc([C@@H]2c3[nH]c4ccccc4c3C[C@@H]3C(=O)N(C)CC(=O)N23)s1	< 6.00

---

Item-by-item account of Ratio IC50
Organism: Homo sapiens
PROTOCOL_DETAILS: Selectivity index, ratio of IC50 for inhibition of full length recombinant human N-terminal GST-tagged PDE11A4 expressed in baculovirus infected sf9 cells to IC50 for inhibition of full length recombinant human N-terminal GST-tagged PDE5A1 expressed in baculovirus infected sf9 cells

COMPOUND	Ratio IC50
CCCCN1C(=O)[C@@H]2Cc3c([nH]c4ccccc34)[C@@H](c3ccc(CC)s3)N2C1=O	> 33
CCc1ccc([C@@H]2c3[nH]c4ccccc4c3C[C@H]3C(=O)N(CC)C(=O)N23)o1	> 342
CCc1ccc(C2c3[nH]c4ccccc4c3C(=O)CN2c2ncc(-c3ccc(OC)c(OC)c3)cn2)o1 (configuration not stated)	12
CCc1ccc([C@@H]2c3[nH]c4ccccc4c3C[C@@H]3C(=O)N(CC)C(=O)N23)s1	24
CCc1ccc([C@H]2c3[nH]c4ccccc4c3C[C@H]3C(=O)N(C)CC(=O)N23)s1	> 50
CCc1ccc([C@@H]2c3[nH]c4ccccc4c3C[C@@H]3C(=O)N(C)CC(=O)N23)s1	70
CCc1ccc([C@@H]2c3[nH]c4ccccc4c3C[C@H]3C(=O)N(CC)C(=O)N23)s1	> 190

---

Species on record: Homo sapiens
PROTOCOL_DETAILS: Selectivity index, ratio of IC50 for inhibition of full length recombinant human N-terminal GST-tagged PDE6C expressed in baculovirus infected sf9 cells to IC50 for inhibition of full length recombinant human N-terminal GST-tagged PDE5A1 expressed in baculovirus infected sf9 cells

SMILES_RECORD	Ratio IC50
CCCCN1C(=O)[C@H]2Cc3c([nH]c4ccccc34)[C@@H](c3ccc(CC)s3)N2C1=O	> 27
Cc1ccc([C@@H]2c3[nH]c4ccccc4c3C[C@@H]3C(=O)N(C)CC(=O)N23)s1	> 115
CCc1ccc([C@@H]2c3[nH]c4ccccc4c3C[C@@H]3C(=O)N(C)CC(=O)N23)o1	> 79
CCc1ccc([C@@H]2c3[nH]c4ccccc4c3C[C@@H]3C(=O)N(CC)C(=O)N23)o1	> 118
CCc1ccc([C@@H]2c3[nH]c4ccccc4c3C[C@@H]3C(=O)N(C)CC(=O)N23)s1	> 258
CCc1ccc([C@H]2c3[nH]c4ccccc4c3C[C@H]3C(=O)N(C)CC(=O)N23)s1	> 50
CCc1ccc([C@@H]2c3[nH]c4ccccc4c3C[C@@H]3C(=O)N(CC)C(=O)N23)s1	> 142

Reference source: ChEMBL document CHEMBL4265950
